# measurement description: Phase I clinical trial, human plasma pharmacokinetics of oral Compound 1
# Format: in vivo
# experimental setup: human, plasma, po, 50 mg/m^2, Day 01, Cohort 1, Subject 101, 50 mg/m^2 (100 mg), oral daily
measured property: Tmax (h)
Write the value in h as a bare number.

Ask: Quick one: Tmax for C[C@H](O)C(=O)N1CCC(CCn2c(Sc3cc4c(cc3Br)OCO4)nc3c(N)ncnc32)CC1 [Compound 1] ?
Reply: 2

###

# measurement description: Phase I clinical trial, human plasma pharmacokinetics of oral Compound 1
# Type: in vivo
# experimental setup: both sexes, human, plasma, po, 100 mg/m^2, Day 01, Cohort 2, 100 mg/m^2 (160 mg), oral daily
measured property: AUC(0-inf) (ng·h/mL)
Please respond with the number in ng·h/mL and leave the unit unwritten.

Ask: # AUC(0-inf) lookup, item C[C@H](O)C(=O)N1CCC(CCn2c(Sc3cc4c(cc3Br)OCO4)nc3c(N)ncnc32)CC1
Reply: 36800
